Test system: Wolbachia pipientis
Assay: Anti-Wolbachia Cell-Based Screen
Format: functional
Set-up: scale not given: in the data most compounds retested in dose-response had high values
Conditions: 5 µM
The whole screen tested about 48,000 compounds, of which about 13,000 (27%) showed an effect of 50% or more. Some of the results follow.
test_readout: Percent Effect (%)

[[record]]
compound = "Cc1cccc(C(=O)N2CCN(C)CC2)c1NC(=O)c1ccncc1"
test_readout = "Percent Effect"
number = -3.532

[[record]]
compound = "CCNC(=O)NC(=O)CN1CCOC(c2ccccc2Cl)C1 (stereo not drawn)"
test_readout = "Percent Effect"
number = 0.5373

[[record]]
compound = "O=C(c1ccn(-c2ccccc2Cl)n1)N1CCSCC1"
test_readout = "Percent Effect"
number = -7.672

[[record]]
compound = "CC(C1CCN(Cc2c(Cl)cncc2Cl)CC1)N1CCOCC1 (stereo not drawn)"
test_readout = "Percent Effect"
number = 1.146

[[record]]
compound = "CN(C)CCN(C)C(=O)c1cnc2c(c1)nc(-c1ccccc1Cl)n2C"
test_readout = "Percent Effect"
number = -6.044

[[record]]
compound = "O=C(c1ccc(-n2cccn2)nc1)N1CCCN(c2cccnn2)CC1"
test_readout = "Percent Effect"
number = 2.596

[[record]]
compound = "CCn1cnnc1CCNC(=O)C1COc2ccc(OC)cc2C1 (stereo not drawn)"
test_readout = "Percent Effect"
number = 0.6591

[[record]]
compound = "CCC1(CO)CCCN(C(=O)c2cc(COc3ccccc3F)[nH]n2)C1 (stereo not drawn)"
test_readout = "Percent Effect"
number = 110.4

[[record]]
compound = "CN1CCC(Oc2ccc(NC(=O)c3ccccc3)cc2)CC1"
test_readout = "Percent Effect"
number = 6.259

[[record]]
compound = "O=C1CC2(CCN(C(=O)Cc3cc4c(cc3Cl)OCCO4)C2)C(=O)N1 (stereo not drawn)"
test_readout = "Percent Effect"
number = -1.867

[[record]]
compound = "COc1ccc2c(c1)C(=O)N(C)C1(CCN(C(=O)OC(C)(C)C)CC1)N2"
test_readout = "Percent Effect"
number = -17.46

[[record]]
compound = "O=C(NCCNC(=O)c1scnc1Cl)c1ccccc1"
test_readout = "Percent Effect"
number = -1.754

[[record]]
compound = "CCC1(CO)CCN(C(=O)c2cc(COc3ccccc3F)[nH]n2)CC1"
test_readout = "Percent Effect"
number = 118.9


---

Tested on: Wolbachia pipientis
Experiment: Anti-Wolbachia Cell-Based Screen
Type: functional
Set-up: scale not given: in the data most compounds retested in dose-response had high values
Details: 5 µM
The whole screen tested about 48,000 compounds, of which about 13,000 (27%) showed an effect of 50% or more. The list shows a part of the results.
# maps each entry to its Percent Effect
test_readout: Percent Effect (%)

[[record]]
compound = "COc1ccc(CN2CCc3c(CNC(=O)CC#N)nn(C)c3C2)cc1.O=C(O)C(F)(F)F.O=C(O)C(F)(F)F"
unit_name = "%"
number = 8.44

[[record]]
compound = "C1CCC(CNC2CCSCC2)(N2CCOCC2)CC1"
unit_name = "%"
number = -18.78

[[record]]
compound = "c1cc(CN2CCCCC2)cc(NCc2cc[nH]n2)c1"
unit_name = "%"
number = 0.9619

[[record]]
compound = "CN(c1ncc(C(N)=O)cc1Cl)C1CCC(c2ccccc2)CC1 (stereo not drawn)"
unit_name = "%"
number = -13.88

[[record]]
compound = "CN(C)C[C@H]1CC[C@@H](Cc2ccc3c(cnn3C)c2)O1"
unit_name = "%"
number = 15.72

[[record]]
compound = "CCN1C(=O)COC[C@@H]1[C@H](O)c1ccc(NC(=O)COC)cc1"
unit_name = "%"
number = -2.196

[[record]]
compound = "CNC(=O)CCc1cc(C)nc(C2CCCCN2)n1 (stereo not drawn)"
unit_name = "%"
number = 122.2

[[record]]
compound = "CC[C@@H]1N(Cc2ccc(OC)cc2)CCC[C@]12CCC(=O)N2CCOC.O=C(O)C(F)(F)F"
unit_name = "%"
number = 91.26

[[record]]
compound = "Cc1noc(NC(=O)c2ccc(OC(F)(F)F)cc2)n1"
unit_name = "%"
number = 14.41

[[record]]
compound = "Cc1nn(C)c(C)c1NC(=O)CNC(c1ccccc1)C1CCC1 (stereo not drawn)"
unit_name = "%"
number = -2.911

[[record]]
compound = "Cc1ccc(N2CCC(NC(C)c3ccc(C)o3)CC2)nc1 (stereo not drawn)"
unit_name = "%"
number = 5.031

[[record]]
compound = "O=C(CN1CCc2ccccc21)NCc1ccc(Cl)cc1"
unit_name = "%"
number = -3.042

[[record]]
compound = "Cc1ccccc1OC1CCN(CC(=O)Nc2c(C)nn(C)c2C)CC1"
unit_name = "%"
number = 133

[[record]]
compound = "c1cc(C[C@H]2[C@H](N3CCOCC3)CCN2Cc2ccoc2)ccn1"
unit_name = "%"
number = 0.9808

[[record]]
compound = "CN(C)[C@H]1CCCCN(C(=O)CCc2csc(N)n2)C1"
unit_name = "%"
number = -1.322

[[record]]
compound = "Cn1cc(NC(=O)c2cccc(C(F)(F)F)c2)c(=O)n(C)c1=O"
unit_name = "%"
number = -3.646

[[record]]
compound = "CNS(=O)(=O)CCn1cc(-c2ccc(OC)c(OC)c2)nn1"
unit_name = "%"
number = -29.27

[[record]]
compound = "Cn1ccc(NC(=O)CN2C[C@H]3CC[C@@H]2CN(Cc2ccccn2)C3)n1"
unit_name = "%"
number = -23.26

[[record]]
compound = "COc1ccc(C)cc1C1(CNc2cncc(Cl)n2)CCOCC1"
unit_name = "%"
number = -4.03

[[record]]
compound = "Cc1cc(C)n(CC2CCCCN2CC(=O)Nc2nncs2)n1 (stereo not drawn)"
unit_name = "%"
number = -4.796

[[record]]
compound = "Cn1nc(CNC(=O)c2ccc(OC(F)(F)F)cc2)c2c1CCOC2"
unit_name = "%"
number = 101.2

[[record]]
compound = "CC(C)NC(=O)c1nc2c(s1)CCCN2Cc1ccccc1"
unit_name = "%"
number = -9.51

[[record]]
compound = "COCCN1C[C@H]2CC[C@@H]1CN(CC(=O)Nc1ccn(C)n1)C2"
unit_name = "%"
number = 0.2654

[[record]]
compound = "O=C(COCC1CCCCO1)N1CCN(Cc2ccccc2F)C(=O)C1 (stereo not drawn)"
unit_name = "%"
number = -11.31

[[record]]
compound = "COc1ccc(CN2CCO[C@@H]3C[C@@H](C(=O)NC(C)C)C[C@H]32)cc1.O=C(O)C(F)(F)F"
unit_name = "%"
number = -0.6614

[[record]]
compound = "COc1cc(OC)cc(C(=O)NCCCNc2ncccn2)c1"
unit_name = "%"
number = 15.23

[[record]]
compound = "CCc1ccc2c(C3CN(C(C)=O)C3)ncn2c1"
unit_name = "%"
number = -3.623

[[record]]
compound = "N#CCC(=O)NCc1nnc2n1CCN(Cc1nccs1)C2"
unit_name = "%"
number = -14.07

[[record]]
compound = "COc1ccc(CN2C[C@H](N3CCCC3=O)[C@@H]3OCCC[C@@H]32)cc1.O=C(O)C(F)(F)F"
unit_name = "%"
number = 8.325

[[record]]
compound = "Cc1cc(CCC(=O)N(C)C)nc(C2CCCCN2)n1.Cl.Cl (stereo not drawn)"
unit_name = "%"
number = 123.4

[[record]]
compound = "CCOCCN1CCN(CCc2nc3ccccc3c(=O)[nH]2)CC1"
unit_name = "%"
number = -16.1

[[record]]
compound = "Cc1ccc(CN2CCCC3(CCCC(=O)N3C)C2)s1.O=C(O)C(F)(F)F (stereo not drawn)"
unit_name = "%"
number = 5.855

[[record]]
compound = "COC(=O)CCNC(=O)c1ccc(NC(=O)N(C)CC(C)C)cc1"
unit_name = "%"
number = 21.34

[[record]]
compound = "COc1cc(F)c(CN2CCN(CC(C)C)C(=O)C2C)cc1OC (stereo not drawn)"
unit_name = "%"
number = 4.949

[[record]]
compound = "Cc1ncc(CNC(=O)c2nn(C)c3c2CS(=O)(=O)CC3)s1"
unit_name = "%"
number = 8.614

[[record]]
compound = "CC(C)(C)C(O)CN1CCN(C(=O)c2cccc3[nH]ncc23)CC1 (stereo not drawn)"
unit_name = "%"
number = -4.967

[[record]]
compound = "Cc1cc(CCC(=O)N2CCCC2)nc(C2CCCN2)n1 (stereo not drawn)"
unit_name = "%"
number = 120.7

[[record]]
compound = "COc1cccc(-c2cc(-c3nc(CN4CCN(C)CC4)no3)[nH]n2)c1"
unit_name = "%"
number = 0.4618

